B1: Zinc finger homeobox protein 4, residues 2183 to 2238; numbered along this chain, Q86UP3 (parent)
chain: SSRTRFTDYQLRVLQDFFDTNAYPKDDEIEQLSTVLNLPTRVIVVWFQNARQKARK

- Variants of: B1
- test_summary: abundance fitness (aPCA) (normalised: wild type 0, dead -1); higher = more abundant; growth selection in yeast, the domain comes from the species named
- measurement_setup: Homo sapiens
Classification scheme (abundance fitness): range 1 = under -0.3, range 2 = from -0.3 up to -0.07, range 3 = -0.07 and over

Solved entries:
SSRTRGTDYQLRVLQDFFDTNAYPKDDEIEQLSTVLNLPTRVIVVWFQNARQKARK [F6G] :: range 1
SSRTRFTDYQLRVLQDFFDTNAYPKDSEIEQLSTVLNLPTRVIVVWFQNARQKARK [D27S] :: range 3
SSRTRFTDYQLRVLQDFFDTNAYPKDDEIEQKSTVLNLPTRVIVVWFQNARQKARK [L32K] :: range 1

## Task Field: class (abundance fitness) — entry: SSRTRFTDYQLRVLQDFFDTNAYPKDVEIEQLSTVLNLPTRVIVVWFQNARQKARK [D27V]
## Result range 1

Data provenance: the Human Domainome abundance scans (Beltran et al. 2025)
